target: Cytochrome P450 11B2, mitochondrial (Homo sapiens); assay: Inhibition of human CYP11B2 expressed in hamster V79 MZh cells assessed as conversion of [4-14C]-11-deoxycorticosterone substrate by HPTLC assay
Sequence (P19099 whole entry): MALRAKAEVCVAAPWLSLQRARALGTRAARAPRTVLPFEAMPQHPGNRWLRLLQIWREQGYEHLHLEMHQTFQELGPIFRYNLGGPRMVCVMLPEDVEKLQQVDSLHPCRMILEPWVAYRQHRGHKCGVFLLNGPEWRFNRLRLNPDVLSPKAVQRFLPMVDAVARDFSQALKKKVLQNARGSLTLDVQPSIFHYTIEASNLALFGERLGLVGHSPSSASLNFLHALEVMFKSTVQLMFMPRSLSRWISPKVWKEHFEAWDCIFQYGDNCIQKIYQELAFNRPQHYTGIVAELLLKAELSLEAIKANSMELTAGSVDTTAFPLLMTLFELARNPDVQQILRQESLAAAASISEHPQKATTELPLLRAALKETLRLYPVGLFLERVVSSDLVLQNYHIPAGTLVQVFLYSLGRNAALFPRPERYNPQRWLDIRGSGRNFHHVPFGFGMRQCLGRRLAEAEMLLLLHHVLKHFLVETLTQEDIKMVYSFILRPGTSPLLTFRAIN
pIC50: −log10 of the molar value.
measuredParameter: pIC50

Would you please look over these solved cases?
- sampleSmiles: "CCOc1cncc(-c2cc3c4c(c2)CCN4C(=O)CC3)c1"
  pIC50: 9.00
- sampleSmiles: "O=C1CCc2cc(-c3cncc4ccccc34)cc3c2N1CC3"
  pIC50: 9.70
- sampleSmiles: "COc1cncc(-c2cc3c4c(c2)CCC(=O)N4CCC3)c1"
  pIC50: 9.05

P: O=C1CCc2cc(-c3cncc(-c4ccccc4)c3)cc3c2N1CC3
Q: O=C1CCc2cc(-c3cncc(-c4cccc(OC(F)(F)F)c4)c3)cc3c2N1CC3
Could you point out whether the larger pIC50 belongs to P or to Q ? Respond using the label that marks the chosen record. P
(P: 8.89, Q: 7.80)

Provenance of the data: ChEMBL document CHEMBL1765045
